Just for reference, patent US20190202907A1 is where these values come from.

Target: T1, human ST2L (human, UniProt Q01638 19-328, limits assumed)
T1 construct: also called IL-1R4; IL-33Ra
T1 sequence (looked up): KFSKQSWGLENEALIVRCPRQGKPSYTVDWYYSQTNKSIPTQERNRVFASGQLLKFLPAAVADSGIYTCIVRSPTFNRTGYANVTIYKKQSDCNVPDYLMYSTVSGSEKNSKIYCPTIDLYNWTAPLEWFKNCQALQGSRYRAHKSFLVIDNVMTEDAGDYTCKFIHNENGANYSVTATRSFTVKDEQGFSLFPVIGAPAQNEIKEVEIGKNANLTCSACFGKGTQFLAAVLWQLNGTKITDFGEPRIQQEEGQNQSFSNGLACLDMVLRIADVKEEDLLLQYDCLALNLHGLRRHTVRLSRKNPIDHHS
Assay: affinity table; method not stated
parameter: koff (s⁻¹)
Lab book: enter the figure in s⁻¹, no units written.

binder	koff (s⁻¹)
STLM217 (antibody, from another filing, V domains shown) VH: EVQLLESGGGLVQPGGSLRLSCAASGFTFSVYDMFWVRQAPGKGLEWVSDIKGEGGETSYADSVKGRFTISRDNSKNTLYLQMNSLRAEDTAVYYCARDPWSTEGSFFVLDYWGQGTLVTVSS VL: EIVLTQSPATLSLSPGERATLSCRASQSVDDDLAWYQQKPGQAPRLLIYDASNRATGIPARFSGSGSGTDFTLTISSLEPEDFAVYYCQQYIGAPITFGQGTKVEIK	0.000126
STLM206 (antibody, from another filing, V domains shown) VH: EVQLLESGGGLVQPGGSLRLSCAASGFTFSIYDMIWVRQAPGKGLEWVSTIRGEGGSTYYADSVKGRFTISRDNSKNTLYLQMNSLRAEDTAVYYCARDPWSTEGSFFVLDYWGQGTLVTVSS VL: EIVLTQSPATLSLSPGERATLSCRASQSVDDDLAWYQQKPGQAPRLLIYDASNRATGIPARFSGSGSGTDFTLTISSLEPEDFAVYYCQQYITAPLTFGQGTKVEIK	0.00016
STLM219 (antibody, from another filing, V domains shown) VH: EVQLLESGGGLVQPGGSLRLSCAASGFTFSGYDMFWVRQAPGKGLEWVSDIGGEGGSTNYADSVKGRFTISRDNSKNTLYLQMNSLRAEDTAVYYCARDPWSTEGSFFVLDYWGQGTLVTVSS VL: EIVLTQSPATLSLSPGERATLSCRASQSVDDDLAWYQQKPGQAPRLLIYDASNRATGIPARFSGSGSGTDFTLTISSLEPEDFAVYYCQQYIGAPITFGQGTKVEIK	0.000201
STLM210 (antibody, from another filing, V domains shown) VH: EVQLLESGGGLVQPGGSLRLSCAASGFTFSDDAMIWVRQAPGKGLEWVSYIGGNGGTTYYADSVKGRFTISRDNSKNTLYLQMNSLRAEDTAVYYCARDPWSTEGSFFVLDYWGQGTLVTVSS VL: EIVLTQSPATLSLSPGERATLSCRASQSVDDDLAWYQQKPGQAPRLLIYDASNRATGIPARFSGSGSGTDFTLTISSLEPEDFAVYYCQQYNDAITFGQGTKVEIK	0.000227

Now look at this one.
The recorded koff for STLM230 (antibody, from another filing, V domains shown) VH: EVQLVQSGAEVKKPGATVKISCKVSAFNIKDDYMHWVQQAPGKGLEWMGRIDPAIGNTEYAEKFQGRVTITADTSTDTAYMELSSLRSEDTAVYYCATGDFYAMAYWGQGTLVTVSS VL: DIQMTQSPSSLSASVGDRVTITCITNTDIDDVIHWYQQKPGKAPKLLIYEGNTLRPGVPSRFSGSGSGTDFTLTISSLQPEDFATYYCLQSDNMLTFGQGTKLEIK is 0.000426
